Test system: Male Sprague Dawley (SD) rats
Assay: Efficacy testing on appetite: acute food intake in ad libitum fed normal weight rats
Format: in vivo, rat
Details: single dose 10 nmol/kg, day 2 [24-48 hours]
Numbered stars: 1 amine (or outer) side, 2 acyl side, 3 side chain; on linkers, the order of the positions; unused ones are H or OH. Square brackets hold non-standard residues; d marks the D form. Side chains are listed from the residue outwards. * marks the point of attachment. C18 diacid = O=C(O)CCCCCCCCCCCCCCCCC(=O)*; γGlu = O=C(O)[C@H](CCC(=O)[*:2])N[*:1]; AEEA = NCCOCCOCC(=O)O; Aib = CC(C)(N)C(=O)O
readout.label: Food intake (relative to vehicle) Day 2 (%)
Answers are plain numbers, in %.

Take a look at these entries with their results.
substance	experimental.system	measurement.units	Food intake (relative to vehicle) Day 2
H[Aib]HGTFTSDYSILLEEQAAREFIEWLLAGGPSSGAGQAPGQAPGASHLSTAQTQRLSAELHRLK([AEEA-AEEA-γGlu-C18 diacid])TLPRTETGSGSP-NH2 [Compound 91]	Male Sprague Dawley (SD) rats	%	−84
Y[Aib]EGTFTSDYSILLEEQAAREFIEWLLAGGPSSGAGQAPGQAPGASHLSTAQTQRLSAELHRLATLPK([AEEA-AEEA-γGlu-C18 diacid])TETGSGSP-NH2 [Compound 57]	Male Sprague Dawley (SD) rats	%	−88

Let us examine a further case.
Value lookup for Food intake (relative to vehicle) Day 2; key = Y[Aib]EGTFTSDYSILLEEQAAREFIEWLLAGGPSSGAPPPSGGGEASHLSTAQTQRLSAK([AEEA-AEEA-γGlu-C18 diacid])LHRLATLPRTETGSGSP-NH2 [Compound 109] −34

src = patent US20260174875A1
